Reference for the values: paper PMC4072508

SPOT signal as a fraction of Bim BH3's signal on the same receptor and array by entry:
Biological target: T1, Bfl-1, Q16548
T1 chain: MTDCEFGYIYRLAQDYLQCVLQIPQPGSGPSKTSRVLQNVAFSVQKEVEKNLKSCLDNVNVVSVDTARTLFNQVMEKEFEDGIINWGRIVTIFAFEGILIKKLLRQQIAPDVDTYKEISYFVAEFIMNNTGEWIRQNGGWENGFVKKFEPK
Assay: peptide SPOT array, c-Myc-tagged receptor at 1 uM or 100 nM, anti-c-Myc-Cy3
// no unit, no text: just the number

Worked cases, SPOT signal as a fraction of Bim BH3's signal on the same receptor and array given:
Measured SPOT signal as a fraction of Bim BH3's signal on the same receptor and array of FQQTISCPEGLRLVGSEVGDRTLPGW [IRF3] : 0.02

Measured SPOT signal as a fraction of Bim BH3's signal on the same receptor and array of WLKGDILGEKLVNLADCLCNEDLESR [RNF160] : 0.06

Measured SPOT signal as a fraction of Bim BH3's signal on the same receptor and array of PALLVHWAKCLQKMLRGLNSSYDQQE [RGPD2] : 0.39

Measured SPOT signal as a fraction of Bim BH3's signal on the same receptor and array of QEQEQHVPFDDHTYGDQLVSRFPQLN [NCAPH2] : 0.04

Measured SPOT signal as a fraction of Bim BH3's signal on the same receptor and array of SDIRDDISEQVRHVLRTVRGHPRKKL [TMEM184C] : 0.34

New cases:
Measured SPOT signal as a fraction of Bim BH3's signal on the same receptor and array of LMARPAVALHFQSILDGFKEAVRYVL [SOS2] : 0.44
